Values were extracted from PubChem BioAssay (NCI).

system: SK-OV-3 ovarian; assay: NCI-60 one-dose screen, 48 h; conditions: 10 µM unless noted
About 83,000 compounds went through this panel and 20% of them were active in at least one assay; those are over-represented in the sample as a whole. The source made the active and inactive calls. How the source made its calls: active means growth percent below 10; inactive means the rest.
Would you mind answering with one of these outcomes? active, inactive

Look over these answered cases.
compound: CN(C)c1ccc(-c2ccc3c(c2)c(-c2ccccc2)nc(=O)n3C)cn1
class-assignment: inactive
--
compound: CCOc1cccc(/C=N/NC(=O)c2cccc(Nc3ccnc(C(F)(F)F)c3)c2)c1O
class-assignment: inactive
--
compound: COc1cc2c(cc1OCCCCN1CCN(C(=S)SCCC(C#N)(c3ccccc3)c3ccccc3)CC1)N=C[C@@H]1CCCN1C2=O
class-assignment: active
--
compound: Cc1ccc(-c2nc3nc(-c4ccccc4)nc(N4CCCN(S(C)(=O)=O)CC4)c3o2)cc1
class-assignment: inactive
--
compound: [2H]C([2H])([2H])Oc1ccc(F)cc1/C=C/C(=O)/C=C(/C=C/c1cc(F)ccc1OC([2H])([2H])[2H])OB(F)F
class-assignment: inactive

Query :: Record request — test call for CC(=O)OC(c1ccccc1)C1CCOC1=O (stereo unspecified)
Result :: inactive

* * *

test system: BT-549 breast; assay: NCI-60 one-dose screen, 48 h; details: 10 µM unless noted
Compounds without any hit were thinned out: in the full panel of roughly 83,000, 20% have a hit. Activity calls are given as the source filed them. How the source made its calls: active means growth percent below 10; inactive means the rest.
Would you mind answering with one of these outcomes? TRUE (active), FALSE (inactive)

compound: N#CSc1c[nH]c2cccc(/C=C/C(=O)/C=C(O)/C=C/c3cccc4[nH]cc(SC#N)c34)c12
assayed-target: BT-549 breast
class-assignment: TRUE
//
compound: Cc1nn(-c2cc(NC3CCC(O)CC3)c3c(=O)[nH]c(CCC(F)(F)F)cc3c2)c2c1C(=O)CC(C)(C)C2 (stereo not drawn)
assayed-target: BT-549 breast
class-assignment: FALSE

Next up:
Query :: Record request — test call for COc1cc(OC)c2sc(-c3ccc(-n4cncc4-c4cc(OC)c(OC)c(OC)c4)cc3)nc2c1
Result :: FALSE

* * *

system: UACC-62 melanoma; test: NCI-60 one-dose screen, 48 h (100 = growth as untreated, 0 = no growth, -100 = all killed); details: 10 µM unless noted
The panel holds about 83,000 compounds, 20% with a hit somewhere; the sample as a whole holds those more often.
outcome-measure: growth (%)
Give your result in % as a bare value.

Worked cases, answers included:
chemical-smiles: CCCCNC(=O)Oc1ccc(/C(=C(/C)Cc2ccc(OC)cc2)c2ccc(OCCN3CCCCCC3)cc2)cc1
units-symbol: %
growth: 79.1

chemical-smiles: COC(=O)c1c2c(n3ccccc13)C(=O)c1ccccc1C2=O
units-symbol: %
growth: 65.7

chemical-smiles: COc1cc(OC)c(C(=O)C(CN(C)C)CN(C)C)cc1OC
units-symbol: %
growth: 19.2

chemical-smiles: CCCCCCCCCCCCCOC(=O)c1c(C)[nH]c(/C=C2\N=C(c3ccc[nH]3)C=C2OC)c1C
units-symbol: %
growth: -19.1

chemical-smiles: S=C(c1ccc2c(c1)OCO2)N1CCN(c2cccc(Cl)c2)CC1
units-symbol: %
growth: 25.4

Query :: Report measured growth; entry is O=C(O)c1ccc(-c2ccc(/C=N/Nc3nc(Nc4ccccc4)nc(N4CCCCC4)n3)o2)cc1
Result :: 67.6

Query :: Report measured growth; entry is Cc1ccc(/C=C(\C#N)n2nnc3cc(F)c(F)cc32)cc1
Result :: 34.7

* * *

test system: IGROV1 ovarian; test: NCI-60 one-dose screen, 48 h; details: 10 µM unless noted
The panel holds about 83,000 compounds, 20% with a hit somewhere; the sample as a whole holds those more often. Active and inactive are the calls of the source. The calls were made as follows: active = growth percent below 10; inactive = the rest.
Would you mind answering with one of these outcomes? active, inactive

compound: CSc1nc(C)c([N+](=O)[O-])c(N)n1
assayed-target: IGROV1 ovarian
class-assignment: inactive

Query :: Record request — test call for C#COc1cccc(Nc2ncnc3cc(NC(=O)[C@@H](C)Cl)ccc23)c1
Result :: active

Query :: Record request — test call for CCNc1ccc(-c2nc3ccccc3n3cccc23)cc1
Result :: inactive

Query :: Record request — test call for O=C(Oc1ccc(CCl)cc1)c1ccccc1
Result :: active

Query :: Record request — test call for COc1ccc(-c2nc3c(N)c(CO)cnc3s2)cc1
Result :: inactive

* * *

system: NCI-H23 lung; test: NCI-60 one-dose screen, 48 h (100 = growth as untreated, 0 = no growth, -100 = all killed); conditions: 10 µM unless noted
Compounds without any hit were thinned out: in the full panel of roughly 83,000, 20% have a hit.
outcome-measure: growth (%)
Give your result in % as a bare value.

Worked cases, answers included:
molecule: CCCCCN(CCCCC)CC(O)c1cc(C)c2ccc3cc(C(C)C)ccc3c2c1 (stereo not drawn)
assayed-target: NCI-H23 lung
units-symbol: %
growth: -52.1
--
molecule: C=Cc1cnc(Nc2ccc(OC)cc2)nc1NCCCNC(=O)C1CCC1
assayed-target: NCI-H23 lung
units-symbol: %
growth: 45.2
--
molecule: CN(CCC(=O)c1ccccc1)CCC(=O)c1ccccc1
assayed-target: NCI-H23 lung
units-symbol: %
growth: 91.5

Query :: Report measured growth; entry is CCN(CC)c1ccc(/C=N/NC(=O)Cc2ccc(Nc3ccnc(C(F)(F)F)c3)cc2)c(O)c1
Result :: 19.1

Query :: Report measured growth; entry is CN1CCN(c2ccc3nc4c(nc3c2C(F)(F)F)C(=O)c2ncccc2C4=O)CC1
Result :: -39.7

* * *

system: M14 melanoma; assay: NCI-60 one-dose screen, 48 h; settings: 10 µM unless noted
Compounds without any hit were thinned out: in the full panel of roughly 83,000, 20% have a hit. Activity calls are given as the source filed them. Rule for the calls: active = growth percent below 10; inactive = the rest.
Would you mind answering with one of these outcomes? active, inactive

Look over these answered cases.
compound: CC1(C)CC2=C3C=C[C@@H]4[C@@]5(C)CCC(=O)C(C)(C)[C@@H]5CC[C@@]4(C)[C@]3(C)CC[C@@]2(C(=O)O)C[C@H]1O
assayed-target: M14 melanoma
class-assignment: inactive

compound: C#COc1cccc(Nc2ncnc3cc(NC(=O)[C@@H](C)Cl)ccc23)c1
assayed-target: M14 melanoma
class-assignment: inactive

compound: Nc1[nH]c(=S)nc2oc(-c3ccccc3)c(-c3ccccc3)c12
assayed-target: M14 melanoma
class-assignment: inactive

Next up:
Query :: Record request — test call for CCCCCCCC/C=C\CCCCCCCCOc1ccc(CC(=O)NCC[N+]2(C)CCOCC2)cc1
Result :: inactive

* * *

system: HOP-92 NSCLC; assay: NCI-60 one-dose screen, 48 h; conditions: 10 µM unless noted
Compounds without any hit were thinned out: in the full panel of roughly 83,000, 20% have a hit. Active and inactive are the calls of the source. How the source made its calls: active means growth percent below 10; inactive means the rest.
Would you mind answering with one of these outcomes? active, inactive

Query :: Record request — test call for COc1ccc(CCN2C(=O)/C(=C/c3ccc(C4Oc5ccccc5C5CC(c6ccccc6)=NN54)cc3)SC2=S)cc1 (stereo unspecified)
Result :: inactive

Query :: Record request — test call for C=C1CC[C@@H]2[C@](C)(COC(C)=O)[C@H](OC(C)=O)CC[C@@]2(C)[C@@H]1CC(Nc1ccc(S(=O)(=O)NC(C)=O)cc1)C1=CCOC1=O (stereo partly specified)
Result :: inactive

Query :: Record request — test call for CCN1C(=O)N(CC)C2C1NN=c1s/c(=C\c3cnc(C)n3C)c(=O)n12 (stereo unspecified)
Result :: inactive

Query :: Record request — test call for O=C1/C(=C/c2ccccn2)NC(=S)N1c1ccccc1Cl
Result :: inactive

Query :: Record request — test call for COc1ccc2c(c1)c(-c1nc(-c3c[nH]c4ncccc34)cs1)cn2CCCN1CCOCC1
Result :: inactive

Query :: Record request — test call for c1ccc(CCNc2c3ccccc3nc3ccccc23)cc1
Result :: active

Query :: Record request — test call for Cc1ccc2nc(/C(C#N)=C(/CCCO)NC(Cc3ccccc3)C(=O)OCc3ccccc3)[nH]c(=O)c2c1 (stereo unspecified)
Result :: inactive

Query :: Record request — test call for COc1cc(OC)c2sc(-c3ccc(-n4cncc4-c4cc(OC)c(OC)c(OC)c4)cc3)nc2c1
Result :: inactive

Query :: Record request — test call for CCOC(=O)c1c(C)nc2ccccc2c1/C=C/c1ccccc1
Result :: inactive

Query :: Record request — test call for Cc1nn(-c2cc(NC3CCC(O)CC3)c3c(=O)[nH]c(CCC(F)(F)F)cc3c2)c2c1C(=O)CC(C)(C)C2 (stereo unspecified)
Result :: inactive

Query :: Record request — test call for CCN1C(=O)N(CC)C2C1NN=c1s/c(=C3\C(=O)N(CC(C)C)c4ccccc43)c(=O)n12 (stereo unspecified)
Result :: inactive

* * *

system: TK-10 renal; experiment: NCI-60 one-dose screen, 48 h; conditions: 10 µM unless noted
The panel holds about 83,000 compounds, 20% with a hit somewhere; the sample as a whole holds those more often. Calls of active or inactive are those of the source. Rule for the calls: active = growth percent below 10; inactive = the rest.
Would you mind answering with one of these outcomes? YES (active), NO (inactive)

Look over these answered cases.
molecule: O=C(CCSc1nnc2n(Cc3ccccc3)c(=O)c3c4c(sc3n12)CCCC4)N1CCN(c2ccccc2)CC1
class-assignment: NO

molecule: Cc1[nH]c(C2CC(c3ccc(C(F)(F)F)c(F)c3)=NN2c2ccccc2)c(C)c1C(=O)NCC(F)(F)F (stereo not drawn)
class-assignment: NO

molecule: COc1cc(OC)c2sc(-c3ccc(-n4cncc4-c4cc(OC)c(OC)c(OC)c4)cc3)nc2c1
class-assignment: NO

molecule: CCN1C(=O)N(CC)C2C1N=C(SCc1ccc(Cl)cc1)N2/N=C/C=C/c1ccccc1OC (stereo not drawn)
class-assignment: NO

molecule: COc1cc(OC)c(C(=O)C(CN(C)C)CN(C)C)cc1OC
class-assignment: YES

molecule: O=C1/C(=C/c2ccccn2)NC(=S)N1c1ccccc1Cl
class-assignment: NO

Query :: Record request — test call for CN(C)c1ccc(-c2nc(-c3ccccc3)c(-c3ccccc3)[nH]2)cc1
Result :: NO

Query :: Record request — test call for Cc1ccc(-c2csc(NC(=O)c3ccccc3CN3C(=O)c4ccccc4C3=O)n2)cc1
Result :: NO
